B1: library; a variant is named by its letters at N, in order (parent)
chain: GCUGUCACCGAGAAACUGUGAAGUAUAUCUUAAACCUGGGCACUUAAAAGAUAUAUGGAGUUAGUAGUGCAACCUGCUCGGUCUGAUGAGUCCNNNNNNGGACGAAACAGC

# Variants of: B1
# test_description: normalized RNA/DNA level without ligand (relative to sTRSVctl = 100) (log10 (% of sTRSVctl)); HEK293T; ligand: cyclic di-GMP (c-di-GMP-II aptamer); higher = less ribozyme self-cleavage, higher mRNA level
# cond: reporter: mCherry (pCS4076), ligand present: no
The entries below come with measured normalized RNA/DNA level without ligand (log10) values attached.

GCUGUCACCGAGAAACUGUGAAGUAUAUCUUAAACCUGGGCACUUAAAAGAUAUAUGGAGUUAGUAGUGCAACCUGCUCGGUCUGAUGAGUCCCAGAUCGGACGAAACAGC [CAGAUC] = 1.61
GCUGUCACCGAGAAACUGUGAAGUAUAUCUUAAACCUGGGCACUUAAAAGAUAUAUGGAGUUAGUAGUGCAACCUGCUCGGUCUGAUGAGUCCCUCUCAGGACGAAACAGC [CUCUCA] = 1.57
GCUGUCACCGAGAAACUGUGAAGUAUAUCUUAAACCUGGGCACUUAAAAGAUAUAUGGAGUUAGUAGUGCAACCUGCUCGGUCUGAUGAGUCCAAAGGGGGACGAAACAGC [AAAGGG] = 1.37

Using known records, supply normalized RNA/DNA level without ligand (log10) for GCUGUCACCGAGAAACUGUGAAGUAUAUCUUAAACCUGGGCACUUAAAAGAUAUAUGGAGUUAGUAGUGCAACCUGCUCGGUCUGAUGAGUCCAAUUGGGGACGAAACAGC [AAUUGG]
1.59

Using known records, supply normalized RNA/DNA level without ligand (log10) for GCUGUCACCGAGAAACUGUGAAGUAUAUCUUAAACCUGGGCACUUAAAAGAUAUAUGGAGUUAGUAGUGCAACCUGCUCGGUCUGAUGAGUCCGUCAAUGGACGAAACAGC [GUCAAU]
1.63

Using known records, supply normalized RNA/DNA level without ligand (log10) for GCUGUCACCGAGAAACUGUGAAGUAUAUCUUAAACCUGGGCACUUAAAAGAUAUAUGGAGUUAGUAGUGCAACCUGCUCGGUCUGAUGAGUCCCUUGAUGGACGAAACAGC [CUUGAU]
1.66

Using known records, supply normalized RNA/DNA level without ligand (log10) for GCUGUCACCGAGAAACUGUGAAGUAUAUCUUAAACCUGGGCACUUAAAAGAUAUAUGGAGUUAGUAGUGCAACCUGCUCGGUCUGAUGAGUCCCGACACGGACGAAACAGC [CGACAC]
1.59

Using known records, supply normalized RNA/DNA level without ligand (log10) for GCUGUCACCGAGAAACUGUGAAGUAUAUCUUAAACCUGGGCACUUAAAAGAUAUAUGGAGUUAGUAGUGCAACCUGCUCGGUCUGAUGAGUCCUAAGCGGGACGAAACAGC [UAAGCG]
1.75

Using known records, supply normalized RNA/DNA level without ligand (log10) for GCUGUCACCGAGAAACUGUGAAGUAUAUCUUAAACCUGGGCACUUAAAAGAUAUAUGGAGUUAGUAGUGCAACCUGCUCGGUCUGAUGAGUCCUCCCAAGGACGAAACAGC [UCCCAA]
1.68

Using known records, supply normalized RNA/DNA level without ligand (log10) for GCUGUCACCGAGAAACUGUGAAGUAUAUCUUAAACCUGGGCACUUAAAAGAUAUAUGGAGUUAGUAGUGCAACCUGCUCGGUCUGAUGAGUCCCAACGAGGACGAAACAGC [CAACGA]
1.56

Using known records, supply normalized RNA/DNA level without ligand (log10) for GCUGUCACCGAGAAACUGUGAAGUAUAUCUUAAACCUGGGCACUUAAAAGAUAUAUGGAGUUAGUAGUGCAACCUGCUCGGUCUGAUGAGUCCUGUCGCGGACGAAACAGC [UGUCGC]
1.76
